For each entry below, report its enrichment score value.
- assayed.target: biotinylated His-Avi-TEAD (194-411) (UniProt P28347)
- assay.comment: SSM screen, enrichment after two rounds of sorting
Respond using a number only.

What does the data say about its enrichment score? Entry: GSPDEYIERAKECCMKGDIQCCLRYFEESGDPNVMLICLFCP (designed binder) [K13M variant of SEQ ID NO: 1] -0.4

What do you have for GSPDEYIERVKECCKKGDIQCCLRYFEESGDPNVMLICLFCP (designed binder) [A08V variant of SEQ ID NO: 1] ? -4.43

Also need GSPDEYIERAKMCCKKGDIQCCLRYFEESGDPNVMLICLFCP (designed binder) [E10M variant of SEQ ID NO: 1] , thanks. -0.34

Please do the same for GSPDEYIERAKECCKKGDLQCCLRYFEESGDPNVMLICLFCP (designed binder) [I17L variant of SEQ ID NO: 1] as well. 1.28

Would you mind doing GSPDEYIERAKECCKKGDIRCCLRYFEESGDPNVMLICLFCP (designed binder) [Q18R variant of SEQ ID NO: 1] as well? -3.67

Do the same for GSPDEVIERAKECCKKGDIQCCLRYFEESGDPNVMLICLFCP (designed binder) [Y04V variant of SEQ ID NO: 1] please -0.75
